- Test system: HCT116 cells
- Assay name: Inhibitory activity of BrdU uptake in HCT116 cells (Cell Proliferation ELISA, chemiluminescence)
- Assay type: cell-based
- Measurement parameters: HCT-116; HCT116 cells derived from human colon cancer, cultured with compound for 12 hours, BrdU pulse 1 hour
- Procedure: Growing cells perform DNA duplication in the S phase of the cell cycle, and divide into daughter cells in the M phase via the G2 phase. […] Quantitative determination of BrdU uptake was performed using the Cell Proliferation ELISA, BrdU (chemiluminescence)(Roche Diagnostics). […] The cells were incubated at room temperature for 10 minutes and chemical luminescence was determined with a luminometer. […]

# Molecule, Assay system, IC50
rows = [
    ("CO[C@H]1CCCN(Cc2cc3c4nc(c(=O)[nH]c4c2)-c2cccc4c(=O)n([nH]c24)CCN2CC[C@@H](C2)O3)C1 [[12]]", "HCT116 cells", "9.7 nM"),
    ("O=c1[nH]c2cc(CN3CCOCC3)cc3c2nc1-c1cccc2c(=O)n(sc12)CCN1CCC(CC1)O3 [[39]]", "HCT116 cells", "9.4 nM"),
    ("Cc1cnc(-c2cc3c4nc(c(=O)[nH]c4c2)-c2cccc4c(=O)n([nH]c24)CCN2CC(C[C@H]2C)O3)nc1 (some centres unmarked) [[85]]", "HCT116 cells", "20 nM"),
    ("C[C@@H]1CC2CN1CCn1[nH]c3c(cccc3c1=O)-c1nc3c(cccc3[nH]c1=O)O2 (some centres unmarked) [[134]]", "HCT116 cells", "7.8 nM"),
    ("C[C@@H]1CC2CN1CCn1[nH]c3c(cccc3c1=O)-c1nc3c(cc(-c4ncccn4)cc3[nH]c1=O)O2 (some centres unmarked) [[83]]", "HCT116 cells", "30 nM"),
    ("O=c1[nH]c2cc(CN3CCCCC3)cc3c2nc1-c1cccc2c(=O)n([nH]c12)CCCCCO3 [[51]]", "HCT116 cells", "23 nM"),
    ("CN1CCOc2cccc3[nH]c(=O)c(nc23)-c2cccc3c(=O)n([nH]c23)CC1 [[71]]", "HCT116 cells", "75 nM"),
    ("CO[C@@H]1CCCN(Cc2cc3c4nc(c(=O)[nH]c4c2)-c2cccc4c(=O)n([nH]c24)CCN2CC[C@@H](C2)O3)C1 [[11]]", "HCT116 cells", "16 nM"),
]
